Experiment: modulators of S6 phosphorylation in cells, primary screen, cell-based, A549, cytoblot, luminescence, serum-stimulated (AID 1158);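 further: serum-stimulated A549 lung adenocarcinoma cells; signal is phosphorylated S6 detected by cytoblot immunostaining with HRP secondary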
Settings: A549 phospho-S6 cytoblot, 5 h, higher = more signal
ASSAY_READOUT: z-score

{"ITEM_SMILES": "COC(=O)[C@@]1(Cc2ccccc2CN=[N+]=[N-])N=C(c2ccc(OCCCO)cc2)O[C@H]1c1ccccc1N=[N+]=[N-]", "ASSAY_READOUT": "z-score", "REPORTED_MEASUREMENT": 0.166}
{"ITEM_SMILES": "O=C1C[C@@](C(=O)NC2CC2)(c2ccc([N+](=O)[O-])cc2)[C@@H](c2ccc(CO)cc2I)N1CC12CC3CC(CC(C3)C1)C2", "ASSAY_READOUT": "z-score", "REPORTED_MEASUREMENT": -0.284}
{"ITEM_SMILES": "COCCOC(=O)N1C(=O)[C@@]2(c3cc(C#CC4(O)CCCCCC4)ccc31)[C@H](C(=O)N1CCCCCCC1)[C@H]1C(=O)O[C@H](c3ccccc3)[C@H](c3ccccc3)N1[C@@H]2c1ccc(O)cc1", "ASSAY_READOUT": "z-score", "REPORTED_MEASUREMENT": 1.49}

###

# reported z-score; entries follow
Test: cell viability in Huh7 cells, primary screen, cytotoxicity control for HCV replication inhibitor project, CellTiter-Glo luminescence, basal, 48 h (AID 1143);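 further: Huh7 hepatoma cells carrying a hepatitis C replication reporter with no stimulus; test concentration not given here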
Details: Huh7 HCV replicon, higher = more signal, called active from +8 up or from −8 down

{"ITEM_SMILES": "COCCOC(=O)N1C(=O)[C@@]2(c3cc(C#CC4=CCCCC4)ccc31)[C@H](c1ccc(O)cc1)N1[C@H](c3ccccc3)[C@H](c3ccccc3)OC(=O)[C@H]1[C@@H]2C(=O)N1CCCCCCC1", "z-score": -3.42}
{"ITEM_SMILES": "Cc1ccc(S(=O)(=O)N2[C@@H](c3ccccc3)C(C(=O)O)=CC[C@H]2c2ccccc2)cc1", "z-score": -0.498}
{"ITEM_SMILES": "COc1cc2c(cc1OC)CN(C(=O)[C@H]1[C@@H]3C(=O)O[C@@H](c4ccccc4)[C@@H](c4ccccc4)N3[C@@H](c3ccccc3OCCO)[C@]13C(=O)Nc1ccc(C#CC4(O)CCCCCC4)cc13)CC2", "z-score": -3.68}
{"ITEM_SMILES": "C[C@H]1COC(=O)[C@@H]2CCCN2C(=O)[C@@H](C)COC(=O)[C@@H]2CCCN2C1=O", "z-score": -0.0001}

###

Molecular target: Torsin-1A-interacting protein 2 (Homo sapiens)
Experiment: LULL1 binders on small-molecule microarray, primary screen, cell lysate, human LULL1 lysate, 635/667 nm fluorescence (AID 1092);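 further: probe is lysate of COS7 cells overexpressing human LULL1; score merges per-feature 667 nm fluorescence with signal-to-noise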
Details: hLULL1 lysate binding, 635 nm fluorescence, higher = more signal
# reported composite z-score; entries follow
ASSAY_READOUT: composite z-score

{"COMPOUND": "COc1cc([C@@H]2N[C@H](C(=O)O)Cc3c2[nH]c2ccccc32)cc(OC)c1OC", "ASSAY_READOUT": "composite z-score", "REPORTED_MEASUREMENT": 0.235}
{"COMPOUND": "COc1cc(CO)cc(I)c1O[C@H]1C=C(C(=O)NCCO)C[C@@H](N(CC2CCCCC2)C(=O)c2cc3ccccc3oc2=O)[C@@H]1O", "ASSAY_READOUT": "composite z-score", "REPORTED_MEASUREMENT": 0.0986}
{"COMPOUND": "COC(=O)c1ccc(C#CC(NP(=O)(c2ccccc2)c2ccccc2)c2ccccc2)cc1 (stereo not given)", "ASSAY_READOUT": "composite z-score", "REPORTED_MEASUREMENT": 3.14}
{"COMPOUND": "CCC1=C2CN(Cc3ccccc3Br)[C@@H]([C@@H](O)Cc3ccccc3)C2C=CCC1 (stereo not given in full)", "ASSAY_READOUT": "composite z-score", "REPORTED_MEASUREMENT": 2.11}
{"COMPOUND": "CCCC[C@@H]1C[C@H]1[C@@H](NC(=O)c1cccs1)c1ccc(Cl)cc1", "ASSAY_READOUT": "composite z-score", "REPORTED_MEASUREMENT": 0.795}
{"COMPOUND": "Cc1ccc(N2C(=O)c3ccccc3[C@@H](C(=O)NCC(F)(F)F)[C@@H]2c2ccc(CO)cc2)nc1", "ASSAY_READOUT": "composite z-score", "REPORTED_MEASUREMENT": -0.338}
{"COMPOUND": "C[C@]1(C(=O)NCc2ccccc2)c2ccccc2C(=O)N(Cc2cc(C(F)(F)F)cc(C(F)(F)F)c2)[C@H]1c1ccc(CO)cc1", "ASSAY_READOUT": "composite z-score", "REPORTED_MEASUREMENT": 1.51}
{"COMPOUND": "O=C1C[C@@](C(=O)NCCN2CCOCC2)(c2ccc([N+](=O)[O-])cc2)[C@@H](c2ccc(CO)cc2)N1C1CCCCC1", "ASSAY_READOUT": "composite z-score", "REPORTED_MEASUREMENT": 3.07}
{"COMPOUND": "CCN1C(C)=C(C(=O)OC)[C@@H](c2ccccc2)N2C(=O)[C@@]3(C(=O)OC)O[C@@]12[C@@H]1C(=O)CCC[C@@H]13", "ASSAY_READOUT": "composite z-score", "REPORTED_MEASUREMENT": -0.323}
{"COMPOUND": "COC(=O)Cn1c(C(=O)N2CCCC2)cc2c1C[C@H]1CN(C(=O)c3ccccc3)[C@@](Cc3ccccc3)(C(=O)OC)[C@@H]21", "ASSAY_READOUT": "composite z-score", "REPORTED_MEASUREMENT": 2.52}
{"COMPOUND": "Cc1cc(C)c(C(O)C2C=CC3C(=O)N(C)C(=O)C3N2N2CCCCC2)c(C)c1 (stereo not given)", "ASSAY_READOUT": "composite z-score", "REPORTED_MEASUREMENT": 2.99}
{"COMPOUND": "Cc1ccc(S(=O)(=O)N2[C@@H](c3ccccc3)C(C(=O)O)=CC[C@H]2c2ccccc2)cc1", "ASSAY_READOUT": "composite z-score", "REPORTED_MEASUREMENT": 3.4}
{"COMPOUND": "CCN1C(C)=C(C(=O)OC)[C@@H](c2ccccc2)N2C(=O)[C@](O)(C(=O)OC)[C@@H](c3ccccc3)C(C(C)=O)=C12", "ASSAY_READOUT": "composite z-score", "REPORTED_MEASUREMENT": 0.241}
{"COMPOUND": "CC(C)N1CC=CC23O[C@@H]4/C=C\\CCCOC(=O)C4[C@H]2C(=O)N(CCO)[C@@H]3C1=O (stereo not given in full)", "ASSAY_READOUT": "composite z-score", "REPORTED_MEASUREMENT": 1.95}
{"COMPOUND": "CCCCCCc1nc(-c2cc(C)c(OC)c(C)c2)cc2c1[Si](C(C)C)(C(C)C)O[C@H]2c1ccccc1", "ASSAY_READOUT": "composite z-score", "REPORTED_MEASUREMENT": -0.685}
{"COMPOUND": "CO[C@H]1COC(=O)[C@H](C)NC(=O)CC=C[C@@H](C)[C@H](NS(=O)(=O)c2ccc(C)cc2)COC(=O)CC=C[C@@H]1C", "ASSAY_READOUT": "composite z-score", "REPORTED_MEASUREMENT": -0.876}
{"COMPOUND": "COc1cccc([C@@H]2[C@@H](C)CC[C@H]3C(=O)N(C)[C@@H](C(C)C)C(=O)N23)c1", "ASSAY_READOUT": "composite z-score", "REPORTED_MEASUREMENT": 0.21}
{"COMPOUND": "C=CC[C@@]12N=C(c3ccc(OCCCO)cc3)O[C@@H]1c1ccccc1CN(Cc1ccccc1)C2=O", "ASSAY_READOUT": "composite z-score", "REPORTED_MEASUREMENT": 2.86}
{"COMPOUND": "CCc1cccc(NC(=O)O[C@H]2[C@H](OC(=O)Nc3ccccc3)[C@@H](OC(=O)Nc3ccccc3)[C@@H](OC)O[C@@H]2CO)c1", "ASSAY_READOUT": "composite z-score", "REPORTED_MEASUREMENT": 3.25}
{"COMPOUND": "CC(=O)NCCCC[C@@H]1NC(=O)[C@H]2C[C@@H](C(=O)NCCCCCCN(C)C)[C@@H](c3ccc(O)cc3)N2C1=O", "ASSAY_READOUT": "composite z-score", "REPORTED_MEASUREMENT": 2.97}
{"COMPOUND": "C=CCNC(=O)[C@@H]1[C@H]2C(=O)O[C@H](c3ccccc3)[C@H](c3ccccc3)N2[C@H](c2ccc(OCCO)cc2)[C@@]12C(=O)N(C(=O)OCCOC)c1ccc(C#CC3(O)CCCCCC3)cc12", "ASSAY_READOUT": "composite z-score", "REPORTED_MEASUREMENT": 1.6}
{"COMPOUND": "CO[C@H]1COC(=O)[C@@H](C)NC(=O)CC=C[C@@H](C)[C@H](OC)COC(=O)CC=C[C@@H]1C", "ASSAY_READOUT": "composite z-score", "REPORTED_MEASUREMENT": -0.619}
{"COMPOUND": "COc1ccc(CCN2C(=O)[C@@]3(c4ccc([N+](=O)[O-])cc4)CC(=O)N(CC45CC6CC(CC(C6)C4)C5)[C@@H]3c3ccc(CO)cc32)cc1", "ASSAY_READOUT": "composite z-score", "REPORTED_MEASUREMENT": 2.09}
{"COMPOUND": "Cc1ccc(S[C@]2(C(=O)O)CC(=O)N(Cc3ccccc3)[C@@H]2c2ccc(CO)cc2)cc1", "ASSAY_READOUT": "composite z-score", "REPORTED_MEASUREMENT": 1.88}
{"COMPOUND": "COC(=O)Cn1c(C(=O)N2CCCC2)cc2c1C[C@H]1CN(C(=O)c3ccccc3)[C@@](Cc3ccc(OC)cc3)(C(=O)OC)[C@@H]21", "ASSAY_READOUT": "composite z-score", "REPORTED_MEASUREMENT": 3.24}
{"COMPOUND": "COc1ccc([Si](C)(C)[C@@H]2[C@@H](CC(=O)N(CCO)Cc3ccccc3)O[C@]3(C(=O)N(Cc4cccc(N5CCC5=O)c4)c4ccccc43)[C@H]2C)cc1", "ASSAY_READOUT": "composite z-score", "REPORTED_MEASUREMENT": 1.57}
{"COMPOUND": "COc1cccc([C@H]2N[C@H](C(=O)O)CC[C@@H]2C)c1", "ASSAY_READOUT": "composite z-score", "REPORTED_MEASUREMENT": 0.0605}
{"COMPOUND": "Cc1ccc(S[C@]2(C(=O)O)CC(=O)N(Cc3cc(C(F)(F)F)cc(C(F)(F)F)c3)[C@@H]2c2ccc(CO)cc2I)cc1", "ASSAY_READOUT": "composite z-score", "REPORTED_MEASUREMENT": 1.59}
{"COMPOUND": "C[N+](C)(C)CCCC[C@@H]1NC(=O)[C@H]2C[C@@H](C(=O)NCc3ccc(F)cc3)[C@@H](c3cccc(OCCO)c3)N2C1=O", "ASSAY_READOUT": "composite z-score", "REPORTED_MEASUREMENT": 0.823}
{"COMPOUND": "COc1ccc([Si](C)(C)[C@H]2[C@H](CCO)O[C@@]3(C(=O)N(Cc4ccc(N5CCCCC5=O)cc4)c4ccccc43)[C@@H]2C)cc1", "ASSAY_READOUT": "composite z-score", "REPORTED_MEASUREMENT": 1.88}
